All values here come from patent US12404241B2.

molecular target: AR (Homo sapiens); construct: endogenous in cells; host or cells: VCaP cells; assay: VCAP AR Degradation Assay; assay type: cell-based; conditions: class symbols *, **
MEASURED_PROPERTY: Y (AR degradation efficiency, % of DMSO control)

[[record]]
compound = "CCc1cc(N2C(=S)N(c3ccc(C#N)c(C(F)(F)F)c3)C(=O)C2(C)C)ccc1OCCN1CCN([C@H](C)C(=O)Nc2cccc(NC3CCC(=O)NC3=O)c2)CC1 (stereo partly shown) [Example 58]"
test_value = "* (0<Y<=25%)"

[[record]]
compound = "C[C@@H]1CN(CCCc2ccc(N3C(=S)N(c4ccc(C#N)c(C(F)(F)F)c4)C(=O)C3(C)C)cc2F)C[C@H](C)N1CC(=O)Nc1cccc(NC2CCC(=O)NC2=O)c1 (stereo partly shown)"
test_value = "* (0<Y<=25%)"

[[record]]
compound = "C[C@@H]1CN(CCOc2ccc(N3C(=S)N(c4cnc(C#N)c(C(F)(F)F)c4)C(=O)C34CCC4)cc2C2CC2)C[C@H](C)N1CC(=O)Nc1cc(F)cc(NC2CCC(=O)NC2=O)c1 (stereo partly shown)"
test_value = "* (0<Y<=25%)"

[[record]]
compound = "CCc1cc(N2C(=S)N(c3cnc(C#N)c(C(F)(F)F)c3)C(=O)C23CCC3)ccc1OCCN1CCN(CC(=O)Nc2cc(F)cc(NC3CCC(=O)NC3=O)c2)[C@H](C)C1 (stereo partly shown)"
test_value = "* (0<Y<=25%)"

[[record]]
compound = "CCc1c(OCCN2C[C@@H](C)N(CC(=O)Nc3cccc(NC4CCC(=O)NC4=O)c3)[C@@H](C)C2)ccc(N2C(=S)N(c3ccc(C#N)c(C(F)(F)F)c3)C(=O)C2(C)C)c1F (stereo partly shown)"
test_value = "* (0<Y<=25%)"

[[record]]
compound = "CCc1cc(N2C(=S)N(c3ccc(C#N)c(C(F)(F)F)c3)C(=O)C2(C)C)ccc1OCCN1CCN(CC(=O)Nc2cc(F)cc(NC3CCC(=O)NC3=O)c2)C(C)(C)C1 (stereo not shown)"
test_value = "* (0<Y<=25%)"


stdin: Quick one: Y (AR degradation efficiency, % of DMSO control) of CCc1cc(N2C(=S)N(c3cnc(C#N)c(C(F)(F)F)c3)C(=O)C2(C)C)ccc1OCCN1CCN([C@H](C)C(=O)Nc2cc(Cl)cc(NC3CCC(=O)NC3=O)c2)CC1 (single isomer, unassigned) [Example 113] ?
stdout: * (0<Y<=25%)

stdin: Same thing, different compound: CC(F)(F)c1cc(N2C(=S)N(c3cnc(C#N)c(C(F)(F)F)c3)C(=O)C2(C)C)ccc1OCCN1CCN(CC(=O)Nc2cc(F)cc(NC3CCC(=O)NC3=O)c2)CC1 (stereo not shown)
stdout: * (0<Y<=25%)

stdin: Consider next the compound CC(C)c1cc(N2C(=S)N(c3ccc(C#N)c(C(F)(F)F)c3)C(=O)C2(C)C)ccc1OCCN1C[C@@H](C)N(CC(=O)Nc2cc(Cl)cc(NC3CCC(=O)NC3=O)c2)[C@@H](C)C1 (stereo partly shown) in the same way.
stdout: * (0<Y<=25%)

====

biological target: AR (Homo sapiens, UniProt P10275); construct: endogenous in cells; host or cells: VCaP cells; test: VCAP AR Degradation Assay; type: cell-based; settings: class symbols A-C, read-out: DC50
Structures can show the parent of a compound that is named as a salt.
// DC50 lookup, one value per entry

Example entries and their recorded answers appear below.
[[record]]
compound = "CCc1cc(N2C(=S)N(c3ccc(C#N)c(C(F)(F)F)c3)C(=O)C23CCC3)ccc1OCCN1CCN(CC(=O)Nc2cccc(NC3CCC(=O)NC3=O)c2)[C@H](C)C1 (some centres unmarked)"
measured_property = "DC50"
test_value = "< 100 nM"

[[record]]
compound = "CC(C)c1cc(N2C(=S)N(c3ccc(C#N)c(C(F)(F)F)c3)C(=O)C2(C)C)cnc1OCCN1C[C@@H](C)N(CC(=O)Nc2cccc(NC3CCC(=O)NC3=O)c2)C[C@H]1C (some centres unmarked)"
measured_property = "DC50"
test_value = "500 to 1000 nM"

[[record]]
compound = "CC1(C)C(=O)N(c2cnc(C#N)c(C(F)(F)F)c2)C(=S)N1c1ccc(OCCN2CCN(CC(=O)Nc3cc(Cl)cc(NC4CCC(=O)NC4=O)c3)CC2)c(CCF)c1 (centres unmarked)"
measured_property = "DC50"
test_value = "< 100 nM"

[[record]]
compound = "CCc1cc(N2C(=S)N(c3ccc(C#N)c(C(F)(F)F)c3)C(=O)C2(C)C)ccc1O[C@H](C)CN1C[C@@H](C)N(CC(=O)Nc2cccc(NC3CCC(=O)NC3=O)c2)[C@@H](C)C1 (single isomer, unassigned)"
measured_property = "DC50"
test_value = "100 to 500 nM"

[[record]]
compound = "CCc1cc(N2C(=S)N(c3cnc(C#N)c(C(F)(F)F)c3)C(=O)C23CCC3)ccc1OCCN1CCN(CC(=O)Nc2cccc(NC3CCC(=O)NC3=O)c2)C(C)(C)C1 (centres unmarked)"
measured_property = "DC50"
test_value = "< 100 nM"


stdin: DC50 lookup needed for CCc1cc(N2C(=S)N(c3ccc(C#N)c(C(F)(F)F)c3)C(=O)C2(C)C)ccc1CCCN1CCN(CC(=O)Nc2cc(Cl)cc(NC3CCC(=O)NC3=O)c2)CC1 (centres unmarked) , thanks.
stdout: < 100 nM

stdin: What do you get for CCc1cc(N2C(=S)N(c3ccc(C#N)c(C(F)(F)F)c3)C(=O)C2(C)C)ccc1OCCN1CCN(CC(=O)Nc2cccc(N[C@@H]3CCC(=O)NC3=O)c2)CC1 [Example 28, hydrochloride] ?
stdout: < 100 nM

stdin: And CCc1cc(N2C(=S)N(c3cnc(C#N)c(C(F)(F)F)c3)C(=O)C2(C)C)ccc1OCCN1CCN([C@H](C)C(=O)Nc2cc(F)cc(NC3CCC(=O)NC3=O)c2)CC1 (some centres unmarked) ?
stdout: < 100 nM

stdin: Query C[C@@H]1CN(CCOc2ccc(N3C(=S)N(c4cnc(C#N)c(C(F)(F)F)c4)C(=O)C3(C)C)cc2C2CC2)C[C@H](C)N1CC(=O)Nc1cccc(NC2CCC(=O)NC2=O)c1 (some centres unmarked) next
stdout: < 100 nM

stdin: # repeat for CCc1cc(N2C(=S)N(c3cnc(C#N)c(C(F)(F)F)c3)C(=O)C2(C)C)ccc1OCCN1C[C@H]2CC[C@@H]1CN2CC(=O)Nc1cc(Cl)cc(NC2CCC(=O)NC2=O)c1 (some centres unmarked)
stdout: 100 to 500 nM

stdin: Same again, this time with CCc1cc(N2C(=S)N(c3ccc(C#N)c(C(F)(F)F)c3)C(=O)C2(C)C)ccc1OCCN1CCN(CC(=O)Nc2cccc(NC3CCC(=O)NC3=O)c2)[C@H](CC)C1 (some centres unmarked)
stdout: 100 to 500 nM

====

Molecular target: AR (Homo sapiens)
Construct: endogenous in cells; host or cells: VCaP cells
Sequence (P10275 1-920): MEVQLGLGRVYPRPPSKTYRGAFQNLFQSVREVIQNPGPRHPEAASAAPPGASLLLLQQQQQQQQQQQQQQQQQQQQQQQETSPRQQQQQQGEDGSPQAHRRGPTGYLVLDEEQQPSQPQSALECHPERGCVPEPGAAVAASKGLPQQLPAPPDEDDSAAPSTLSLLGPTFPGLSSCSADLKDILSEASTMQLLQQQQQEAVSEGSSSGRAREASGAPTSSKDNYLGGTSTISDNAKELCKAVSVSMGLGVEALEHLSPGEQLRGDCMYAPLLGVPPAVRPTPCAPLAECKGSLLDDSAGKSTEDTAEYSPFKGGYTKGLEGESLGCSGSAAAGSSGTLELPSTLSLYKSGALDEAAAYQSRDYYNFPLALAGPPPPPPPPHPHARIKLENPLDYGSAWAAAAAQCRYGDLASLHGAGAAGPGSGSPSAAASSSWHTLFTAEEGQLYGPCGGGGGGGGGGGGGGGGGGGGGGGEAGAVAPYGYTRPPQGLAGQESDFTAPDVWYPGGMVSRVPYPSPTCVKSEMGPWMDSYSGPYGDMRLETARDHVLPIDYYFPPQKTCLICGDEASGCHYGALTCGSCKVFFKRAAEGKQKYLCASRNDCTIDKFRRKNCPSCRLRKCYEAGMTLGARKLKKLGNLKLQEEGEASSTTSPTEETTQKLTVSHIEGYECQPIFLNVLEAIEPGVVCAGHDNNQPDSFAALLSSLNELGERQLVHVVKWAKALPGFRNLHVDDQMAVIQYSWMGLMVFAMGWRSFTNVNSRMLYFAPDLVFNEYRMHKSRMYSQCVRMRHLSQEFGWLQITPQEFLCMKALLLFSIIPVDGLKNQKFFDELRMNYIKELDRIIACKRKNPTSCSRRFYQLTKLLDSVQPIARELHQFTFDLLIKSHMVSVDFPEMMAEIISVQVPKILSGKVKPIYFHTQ
Assay: VCAP AR Degradation Assay
Type: cell-based
Conditions: class symbols A-C, read-out: DC50
In this section we review reported DC50 values for a set of molecules.

[[record]]
molecule = "CC(C)c1cc(N2C(=S)N(c3cnc(C#N)c(C(F)(F)F)c3)C(=O)C23CCC3)ccc1OCCN1C[C@@H](C)N(CC(=O)Nc2cc(C#N)cc(NC3CCC(=O)NC3=O)c2)[C@@H](C)C1 (stereo partly drawn)"
target_or_test_system = "AR (Homo sapiens)"
measured_property = "DC50"
test_value = "< 100 nM"

[[record]]
molecule = "CC(C)c1cc(N2C(=S)N(c3ccc(C#N)c(C(F)(F)F)c3)C(=O)C2(C)C)ccc1OCCN1C[C@@H](C)N(CC(=O)Nc2cc(NC3CCC(=O)NC3=O)ccc2F)[C@@H](C)C1 (stereo partly drawn)"
target_or_test_system = "AR (Homo sapiens)"
measured_property = "DC50"
test_value = "500 to 1000 nM"


Now consider the entry below.
stdin: # returns recorded DC50 (system: AR (Homo sapiens)) for CCc1cc(N2C(=S)N(c3ccc(C#N)c(C(F)(F)F)c3)C(=O)C2(C)C)ccc1OCCN1CCN(CC(=O)Nc2cc(F)cc(NC3CCC(=O)NC3=O)c2)C(C)(C)C1 (stereo not drawn)
stdout: < 100 nM
